Kindly state kinact/KI for each of the entries shown.
System: Recombinant Rhinovirus 3C protease (RVP) serotype-14 (Human rhinovirus 14, UniProt P03303)
Construct: Recombinant Rhinovirus 3C proteases from serotypes 14, 16, 2 or 89; made in house
Sequence (P03303 1538-1719): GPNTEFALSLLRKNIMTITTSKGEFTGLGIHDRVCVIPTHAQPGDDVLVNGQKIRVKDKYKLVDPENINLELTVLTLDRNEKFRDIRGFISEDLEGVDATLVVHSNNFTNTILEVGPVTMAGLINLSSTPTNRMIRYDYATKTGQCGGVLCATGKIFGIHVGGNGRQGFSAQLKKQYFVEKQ
Assay overview: Inhibition of Rhinovirus Protease (fluorescence resonance energy transfer assay), serotype 14
Assay type: biochemical, human rhinovirus (HRV)
Condition summary: pH 7.6, read-out: kobs/I
The reply should consist of the numeric value with the unit placed after it.

Returns the measured kinact/KI for the input compound. Input: CCOC(=O)/C=C/[C@H](CCC(N)=O)NC(=O)[C@H](Cc1ccccc1)NC(=O)[C@H](Cc1ccccc1)NC(=O)OCc1ccccc1 [Compound 157]
162000 M⁻¹ s⁻¹

Returns the measured kinact/KI for the input compound. Input: CCOC(=O)/C=C/[C@H](CCC(N)=O)NC(=O)[C@H](Cc1ccccc1)NC(=O)[C@H](CC(=O)O)NC(=O)OCc1ccccc1 [Compound 159]
35000 M⁻¹ s⁻¹

Returns the measured kinact/KI for the input compound. Input: CCOC(=O)/C=C/[C@H](CCC(N)=O)NC(=O)[C@H](Cc1ccccc1)NC(=O)[C@H](CC(C)C)NC(=O)CCO [Compound 115]
4480 M⁻¹ s⁻¹

Returns the measured kinact/KI for the input compound. Input: CCOC(=O)/C=C/[C@H](CCC(N)=O)NC(=O)[C@H](Cc1ccccc1)NC(=O)[C@@H](NC(=O)OCc1ccccc1)C(C)(C)C [Compound 151]
39800 M⁻¹ s⁻¹

Returns the measured kinact/KI for the input compound. Input: CCOC(=O)/C=C/[C@H](CCC(N)=O)NC(=O)[C@H](Cc1ccccc1)NC(=O)[C@H](CC(C)C)NC(C)=O [Compound 107]
3660 M⁻¹ s⁻¹

Returns the measured kinact/KI for the input compound. Input: CCOC(=O)/C=C/[C@H](CCC(N)=O)NC(=O)[C@H](Cc1ccccc1)NC(=O)[C@H](CC(C)C)NC(=O)CO [Compound 111]
2060 M⁻¹ s⁻¹

Returns the measured kinact/KI for the input compound. Input: CCOC(=O)/C=C/[C@H](CCC(N)=O)NC(=O)[C@H](Cc1ccc(CO)cc1)NC(=O)[C@H](CC(C)C)NC(=O)OCc1ccccc1 [Compound 114]
82300 M⁻¹ s⁻¹

Returns the measured kinact/KI for the input compound. Input: CC(C)C[C@H](NC(=O)OCc1ccccc1)C(=O)N[C@@H](Cc1ccccc1)C(=O)N[C@H](/C=C/C(=O)OC1CCCCC1)CCC(N)=O [Compound 25]
3700 M⁻¹ s⁻¹

Returns the measured kinact/KI for the input compound. Input: CC(C)C[C@H](NC(=O)OCc1ccccc1)C(=O)N[C@@H](Cc1ccccc1)C(=O)N[C@H](/C=C/C(=O)N1CCc2cc(Br)ccc21)CCC(N)=O [Compound 94]
5800 M⁻¹ s⁻¹

Returns the measured kinact/KI for the input compound. Input: CC(C)C[C@H](NC(=O)OCc1ccccc1)C(=O)N[C@@H](Cc1ccccc1)C(=O)N[C@H](/C=C/C(=O)N1CCc2cc([N+](=O)[O-])ccc21)CCC(N)=O [Compound 86]
12000 M⁻¹ s⁻¹

Returns the measured kinact/KI for the input compound. Input: CCOC(=O)/C=C/[C@H](CCC(N)=O)NC(=O)[C@H](Cc1ccccc1)NC(=O)[C@H](CC(C)C)NC(=O)SCC [Compound 120]
91300 M⁻¹ s⁻¹

Returns the measured kinact/KI for the input compound. Input: CCOC(=O)/C=C/[C@H](COC(N)=O)NC(=O)[C@H](Cc1ccccc1)NC(=O)[C@H](CC(C)C)NC(=O)OCc1ccccc1 [Compound 56]
5620 M⁻¹ s⁻¹

Returns the measured kinact/KI for the input compound. Input: CCOC(=O)/C=C/[C@H](CCC(N)=O)NC(=O)[C@H](Cc1ccccc1)NC(=O)[C@H](CCC(=O)O)NC(=O)OCc1ccccc1 [Compound 154]
78900 M⁻¹ s⁻¹

Returns the measured kinact/KI for the input compound. Input: CCOC(=O)/C=C/[C@H](CC[S+](C)[O-])NC(=O)[C@H](Cc1ccccc1)NC(=O)[C@H](CC(C)C)NC(=O)OCc1ccccc1 (stereo partly drawn) [Compound 12]
2200 M⁻¹ s⁻¹

Returns the measured kinact/KI for the input compound. Input: CC(C)C[C@H](NC(=O)OCc1ccccc1)C(=O)N[C@@H](Cc1ccccc1)C(=O)N[C@H](/C=C/C(=O)n1ccc2ccccc21)CCC(N)=O [Compound 89]
53400 M⁻¹ s⁻¹

Returns the measured kinact/KI for the input compound. Input: CCOC(=O)/C=C/[C@H](CCC(N)=O)NC(=O)[C@H](Cc1ccccc1)NC(=O)[C@H](CC(C)C)NC(=O)SCc1ccccc1 [Compound 106]
280000 M⁻¹ s⁻¹

Returns the measured kinact/KI for the input compound. Input: CCOC(=O)/C(F)=C\[C@H](CCC(N)=O)NC(=O)[C@H](Cc1ccccc1)NC(=O)[C@H](CC(C)C)NC(=O)OCc1ccccc1 [Compound 8]
61 M⁻¹ s⁻¹

Returns the measured kinact/KI for the input compound. Input: CCOC(=O)/C=C/[C@H](CCC(N)=O)NC(=O)[C@H](Cc1cnc[nH]1)NC(=O)[C@H](CC(C)C)NC(=O)OCc1ccccc1 [Compound 112]
6800 M⁻¹ s⁻¹

Returns the measured kinact/KI for the input compound. Input: CCOC(=O)/C=C/[C@H](CCC(N)=O)NC(=O)[C@H](Cc1ccccc1)NC(=O)[C@H](CC(C)C)NC(=O)SC [Compound 119]
69800 M⁻¹ s⁻¹

Returns the measured kinact/KI for the input compound. Input: CC(=O)/C=C/[C@H](CCC(N)=O)NC(=O)[C@H](Cc1ccccc1)NC(=O)[C@H](CC(C)C)NC(=O)OCc1ccccc1 [Compound 13]
54000 M⁻¹ s⁻¹

Returns the measured kinact/KI for the input compound. Input: CC(C)C[C@H](NC(=O)OCc1ccccc1)C(=O)N[C@@H](Cc1ccccc1)C(=O)N[C@H](/C=C/C(=O)N1CCc2cc(S(=O)(=O)N(C)C)ccc21)CCC(N)=O [Compound 88]
8960 M⁻¹ s⁻¹

Returns the measured kinact/KI for the input compound. Input: CCOC(=O)/C=C/[C@H](CCC(N)=O)NC(=O)[C@H](Cc1ccc(C#N)cc1)NC(=O)[C@H](CC(C)C)NC(=O)OCc1ccccc1 [Compound 132]
10800 M⁻¹ s⁻¹

Returns the measured kinact/KI for the input compound. Input: CCOC(=O)/C=C/C(CCC(N)=O)NC(=O)C(Cc1ccccc1)NC(=O)C(CC(C)C)NC(=O)c1ccc2ccccc2c1 (stereo not drawn) [Compound 44]
21000 M⁻¹ s⁻¹

Returns the measured kinact/KI for the input compound. Input: CCOC(=O)/C=C/[C@H](CCC(N)=O)NC(=O)[C@H](Cc1ccccc1)NC(=O)[C@@H](NC(=O)SCC)C(C)C [Compound 180]
300000 M⁻¹ s⁻¹

Source of measurements: patent US6362166B1
